- EXPERIMENTAL PROTOCOL: Three-treatment crossover pharmacokinetics of IN nalmefene, three dosing regimens (Example 13)
- ASSAY CONDITIONS: human, plasma, other: intranasal, 3 mg, […], Mean, T1 (3 mg IN, one spray in one nostril); time 0.0416
MEASURED PROPERTY: concentration at 2.5 min (ng/mL)
All answers are understood in ng/mL, so give the number only.

Please give measured concentration at 2.5 min of the following entry: `C=C1CC[C@@]2(O)[C@H]3Cc4ccc(O)c5c4[C@@]2(CCN3CC2CC2)[C@H]1O5`
0.353

###

- EXPERIMENTAL PROTOCOL: Two-period crossover pharmacokinetics of nalmefene 3 mg IN vs 1.0 mg IM (Example 12)
- ASSAY CONDITIONS: human, plasma, other: intranasal, 3 mg, Median plasma concentration, Treatment A 3.0 mg IN; 0.500 h
MEASURED PROPERTY: concentration at 0.5 h

Please give measured concentration at 0.5 h of the following entry: C=C1CC[C@@]2(O)[C@H]3Cc4ccc(O)c5c4[C@@]2(CCN3CC2CC2)[C@H]1O5 [Nalmefene]
5.86 ng/mL

###

- EXPERIMENTAL PROTOCOL: Two-period crossover pharmacokinetics of nalmefene 3 mg IN vs 1.0 mg IM (Example 12)
- ASSAY CONDITIONS: human, plasma, intramuscular, 1 mg, Mean plasma concentration, Treatment B 1.0 mg IM; 4.00 h
MEASURED PROPERTY: concentration at 4 h (ng/mL)
All answers are understood in ng/mL, so give the number only.

Please give measured concentration at 4 h of the following entry: `C=C1CC[C@@]2(O)[C@H]3Cc4ccc(O)c5c4[C@@]2(CCN3CC2CC2)[C@H]1O5`
0.824

###

- EXPERIMENTAL PROTOCOL: Two-period crossover pharmacokinetics of nalmefene 3 mg IN vs 1.0 mg IM (Example 12)
- ASSAY CONDITIONS: human, plasma, im, 1 mg, T1/2, Treatment B: IM 1.0 mg nalmefene hydrochloride; plasma; Median, n=68
MEASURED PROPERTY: half-life

Please give measured half-life of the following entry: `C=C1CC[C@@]2(O)[C@H]3Cc4ccc(O)c5c4[C@@]2(CCN3CC2CC2)[C@H]1O5`
9.98 h

###

- EXPERIMENTAL PROTOCOL: Three-treatment crossover pharmacokinetics of IN nalmefene, three dosing regimens (Example 13)
- ASSAY CONDITIONS: human, plasma, other: intranasal, 3 mg, […], Min, T1 (3 mg IN, one spray in one nostril); time 0.0416
MEASURED PROPERTY: concentration at 2.5 min (µg/mL)
All answers are understood in µg/mL, so give the number only.

Please give measured concentration at 2.5 min of the following entry: C=C1CC[C@@]2(O)[C@H]3Cc4ccc(O)c5c4[C@@]2(CCN3CC2CC2)[C@H]1O5 [Nalmefene]
0

###

- EXPERIMENTAL PROTOCOL: Two-period crossover pharmacokinetics of nalmefene 3 mg IN vs 1.0 mg IM (Example 12)
- ASSAY CONDITIONS: human, plasma, im, 1 mg, AUC0-5 min, GeoMean, Treatment B 1.0 mg IM (Ref)
MEASURED PROPERTY: AUC(0-t) (ng·h/mL)
All answers are understood in ng·h/mL, so give the number only.

Please give measured AUC(0-t) of the following entry: `C=C1CC[C@@]2(O)[C@H]3Cc4ccc(O)c5c4[C@@]2(CCN3CC2CC2)[C@H]1O5`
0.01
